// reported HT29 IL-8 release, IC50 per item
Biological target: T1, recombinant human LIGHT-214E, FLAG-tagged extracellular domain (human)
T1 chain: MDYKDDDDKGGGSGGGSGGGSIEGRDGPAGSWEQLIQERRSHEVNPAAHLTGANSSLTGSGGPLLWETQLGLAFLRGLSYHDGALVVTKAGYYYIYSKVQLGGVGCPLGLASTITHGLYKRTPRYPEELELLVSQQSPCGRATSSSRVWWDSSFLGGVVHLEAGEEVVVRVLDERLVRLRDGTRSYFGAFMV
Assay: cell-based or functional assay
Number only, in pM; omit the unit.

Solved entries:
| BINDER | HT29 IL-8 release, IC50 [pM] |
| --- | --- |
| 18E04 (purified from hybridoma supernatant, mouse IgG) (antibody, V domains shown, Murine C / human V chimeric IgG, lambda, purified from hybridoma supernatant) VH: QVLLVQSGAEVKKPGASVKVSCKASGYTFTHFDINWVRQATGQGLEWMGWMNPDSDNTDYAQEFQGRVTMTRDTSISTAYMELSSLRSEDTAVYYCARGGTTLDYWGQGTLVTVSS VL: SYELTQPPSVSVSPGQTARITCSGDALPKKYAYWYQQKSGQAPVLVIYEDSKRPSGIPERFSGSSSGTMATLTISGAQVEDEADYYCYSTDSSDNHVIFGGGTKLTVL | 327 |
| 01C02 in human IgG4(PE) format (antibody, V domains shown) VH: QVQLVQSGAEVQKPGASVMVSCKASGYTFTYYGISWVRQAPGQGLEWMGWISANSGNTNYAQKFQGRVTMTTDTSTNTAYMELRSLRTDDTAVYYCAKGGVAVLEYWGQGTLVTVSS VL: DIQLTQSPSFLSASVGDRVTITCWASQGISSYLAWYQQKPGKAPNLLIYVASTLQSGVPSRFSGSGSGTEFTLTISSLQPEDFATYYCQQLKIYPLTFGGGTKVEIK | 261 |
| 01C06 in human IgG4(PE) format (antibody, V domains shown) VH: QVQLVESGGGLVKPGGSLRLSCAASGFTFSDYYMNWIRQAPGKGLEWIADISSRDNTIYYADSVKGRFTISRDNAKNSLYLQMNSLRAEDTAVYYCARERGFGDYFGMDVWGQGTTVTVSS VL: AIQLTQSPSSLSASVGDRVTIACRASQDISSALAWFRQTPGKTPKLLIYDASSLESGVPSRFLGSGSGTDFTLTISSLQPEDFAIYYCQQFNTYPLTFGGGTKVEIK | 556 |

Give the measured HT29 IL-8 release, IC50 of 98C07 (purified from hybridoma supernatant, mouse IgG) (antibody, V domains shown, Murine C / human V chimeric IgG, kappa, purified from hybridoma supernatant) VH: QVQLVESGGGLVKPGGSLRLSCAASGFTFSDYYMSWIRQAPGKGLEWVSYISRSSFIYYSESVKGRFTISRDNAKNSLYLQMNSLRAEDTAVYYCARWELSPFDYWGQGTLVTVSS VL: DIQMTQSPSSLSASVGDRVTITCRASQGISNYLAWFQQKPGKAPKSLIYAASSLQSGVPSKFSGSGSGTDFTLTISSLQPEDFATYFCQQYNTYPFTFGPGTKVDIK .
166
